Experiment: Bioavailability at a dose of 10 mg/Kg administered perorally in female hanover-wistar rat
Assay type: ADME, organism-based
Conditions: in vivo, po
recorded-metric: bioavailability (%)
Just the number please, in %, no unit attached.

bioavailability for C[C@H](O)CNc1cc(-c2[nH]c3cccnc3c2-c2ccc(F)cc2)ccn1 ? 85.6

---

pIC50: −log10 of the molar value.
recorded-metric: pIC50

Item C[C@H](O)CNc1cc(-c2[nH]c3cccnc3c2-c2ccc(F)cc2)ccn1 with Cyclin-dependent kinase 1 (Homo sapiens) - pIC50? < 4.60

---

Biological target: Mitogen-activated protein kinase 14 (Homo sapiens, UniProt Q16539)
Sequence (Q16539 whole entry): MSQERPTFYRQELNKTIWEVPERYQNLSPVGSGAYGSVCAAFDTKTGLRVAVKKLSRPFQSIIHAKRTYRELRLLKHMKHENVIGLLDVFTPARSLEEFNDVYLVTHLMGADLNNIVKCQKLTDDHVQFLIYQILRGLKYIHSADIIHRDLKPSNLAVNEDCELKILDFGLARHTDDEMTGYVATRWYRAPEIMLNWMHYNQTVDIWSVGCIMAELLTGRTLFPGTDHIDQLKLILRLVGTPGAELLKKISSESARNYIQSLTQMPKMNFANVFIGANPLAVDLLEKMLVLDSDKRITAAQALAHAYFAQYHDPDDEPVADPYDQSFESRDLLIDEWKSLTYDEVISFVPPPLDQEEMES
Test: In vitro inhibitory concentration against Mitogen-activated protein kinase p38 alpha
pIC50: −log10 of the molar value.
Outcome label depends on pIC50 relative to 7: at/above gives satisfied, below gives not satisfied.

Does pIC50 meet or surpass 7 for Fc1ccc(-c2c(-c3ccncc3)[nH]c3nccnc23)cc1 ? satisfied

Does pIC50 meet or surpass 7 for COCCn1c(-c2ccncc2)c(-c2ccc(F)cc2)c2ncccc21 ? satisfied

Does pIC50 meet or surpass 7 for C[C@@H](O)CNc1cc(-c2[nH]c3cccnc3c2-c2ccc(F)cc2)ccn1 ? satisfied

Does pIC50 meet or surpass 7 for OCCCCNc1cc(-c2[nH]c3cccnc3c2-c2ccc(F)cc2)ccn1 ? satisfied

Does pIC50 meet or surpass 7 for O=C(O)Cn1c(-c2ccncc2)c(-c2ccc(F)cc2)c2ncccc21 ? not satisfied

Does pIC50 meet or surpass 7 for OCCn1c(-c2ccncc2)c(-c2ccc(F)cc2)c2ncccc21 ? not satisfied

Does pIC50 meet or surpass 7 for CCC(O)CNc1cc(-c2[nH]c3cccnc3c2-c2ccc(F)cc2)ccn1 (centres undefined) ? satisfied

Does pIC50 meet or surpass 7 for Fc1ccc(-c2c(-c3ccncc3)[nH]c3cncnc23)cc1 ? not satisfied

Does pIC50 meet or surpass 7 for Fc1ccc(-c2c(-c3ccncc3)n(CCN3CCCC3)c3cccnc23)cc1 ? not satisfied

Does pIC50 meet or surpass 7 for CCn1c(-c2ccncc2)c(-c2ccc(F)cc2)c2ncccc21 ? satisfied

Does pIC50 meet or surpass 7 for Fc1ccc(-c2c(-c3ccncc3)[nH]c3ccncc23)cc1 ? not satisfied

Does pIC50 meet or surpass 7 for Fc1ccc(-c2c(-c3ccncc3)n(CCN3CCOCC3)c3cccnc23)cc1 ? not satisfied

Does pIC50 meet or surpass 7 for Fc1ccc(-c2c(-c3ccncc3)[nH]c3ccccc23)cc1 ? not satisfied

Does pIC50 meet or surpass 7 for Nc1ncnc2c1cc(-c1ccncc1)n2-c1ccc(F)cc1 ? not satisfied

Does pIC50 meet or surpass 7 for OCCNc1cc(-c2[nH]c3cccnc3c2-c2ccc(F)cc2)ccn1 ? satisfied

Does pIC50 meet or surpass 7 for Fc1ccc(-c2c(-c3ccncc3)n(CCN3CCCCC3)c3cccnc23)cc1 ? not satisfied

Does pIC50 meet or surpass 7 for C[C@H](O)CNc1cc(-c2[nH]c3cccnc3c2-c2ccc(F)cc2)ccn1 ? satisfied

Does pIC50 meet or surpass 7 for Fc1ccc(-c2c(-c3ccncc3)[nH]c3cccnc23)cc1 ? satisfied
